tested on: Escherichia coli IAI1; experiment: growth (OD595) fold change vs plate DMSO controls (fold change (ratio)); higher = more growth; conditions: incubation time: 27 h, anaerobic, 37 °C
Structures can show the parent of a compound that is named as a salt.
Experimental Readout: growth
One number for each entry.

Check out these entries, answers already filled in.
• CN(C)CCN(Cc1ccccc1)c1ccccn1 [Tripelennamine hydrochloride] (20 µM) = 0.99
• CN(C)CCC=C1c2ccccc2CCc2ccccc21 [Amitryptiline hydrochloride] (20 µM) = 1.04
• NC[C@@H]1O[C@H](O[C@H]2[C@@H](O)[C@H](O[C@@H]3[C@@H](O)[C@H](N)C[C@H](N)[C@H]3O[C@H]3O[C@H](CN)[C@@H](O)[C@H](O)[C@H]3N)O[C@@H]2CO)[C@H](N)[C@@H](O)[C@@H]1O [Neomycin sulfate] (20 µM) = 0.997
• CNCCc1ccccn1 [Betahistine mesylate] (20 µM) = 1
• N#CC(c1ccc(Cl)cc1)c1c(Cl)cc(-n2ncc(=O)[nH]c2=O)cc1Cl (stereo not given) [Diclazuril] (20 µM) = 0.993

Give me growth for each of these molecules, listed below.
1. CC(=O)NS(=O)(=O)c1ccc(NC(=O)c2ccccc2C(=O)O)cc1 [Phthalylsulfacetamide] (20 µM)
2. COc1ccc(C(=O)c2ccc(C)cc2)c(O)c1 [Mexenone] (20 µM)
3. CO/N=C(\C(=O)N[C@@H]1C(=O)N2C(C(=O)OC(C)OC(C)=O)=C(COC(N)=O)CS[C@H]12)c1ccco1 (stereo not given in full) [Cefuroxime axetil] (20 µM)
4. CCCCOC(=O)c1ccc(O)cc1 [Butylparaben] (20 µM)
5. CC(=O)OCC(=O)[C@@]1(OC(C)=O)[C@@H](C)C[C@H]2[C@@H]3C[C@H](F)C4=CC(=O)C=C[C@]4(C)[C@@]3(F)[C@@H](O)C[C@@]21C [Diflorasone Diacetate] (20 µM)
6. OC[C@@H](O)[C@@H](O)[C@@H](O)[C@@H](O)CO [Allitol] (50 µM)
7. CCCc1cc(C(N)=S)ccn1 [Prothionamide] (20 µM)

Result:
[0.995, 0.407, 1.18, 0.963, 0.996, 1.08, 1.15]

Give me growth for each of these molecules, listed below.
1. COC(=O)[C@H](Cc1ccccc1)NC(=O)[C@H](CC(=O)O)NCCC(C)(C)C [Neotame] (50 µM)
2. CCOc1ccc(NC(=O)CC(C)O)cc1 (stereo not given) [Bucetin] (20 µM)

Result:
1
0.985

Task: Field request: growth | item: C[C@H]1[C@H](NC(=O)/C(=N\OC(C)(C)C(=O)O)c2csc(N)n2)C(=O)N1S(=O)(=O)O [Aztreonam] (20 µM)
Result: 1.04

* * *

test system: Klebsiella aerogenes DSM 30053; test: fold change of Putrescine concentration vs plate DMSO controls (fold change (ratio)); higher = more amine produced, active = hit call of the paper (significant change in both replicates, either direction); details: incubation time: 27 h, anaerobic, 37 °C
Experimental Readout: fold change of Putrescine concentration

Check out these entries, answers already filled in.
* CCCCCN(C)CCC(O)(P(=O)(O)O)P(=O)(O)O [Ibandronate sodium] (20 µM) | 1.01 (inactive)
* CC1CNc2c(cccc2S(=O)(=O)N[C@@H](CCCNC(=N)N)C(=O)N2CC[C@@H](C)C[C@@H]2C(=O)O)C1 (some centres not stated) [Argatroban] (20 µM) | 1.04 (inactive)
* CC(C)(c1cc(Br)c(O)c(Br)c1)c1cc(Br)c(O)c(Br)c1 (20 µM) | 1.01 (inactive)

Give me fold change of Putrescine concentration for each of these compounds, listed below.
1. OC[C@H]1O[C@@H](c2ccc(Cl)c(Cc3ccc(O[C@H]4CCOC4)cc3)c2)[C@H](O)[C@@H](O)[C@@H]1O [Empagliflozin] (20 µM)
2. C=CCc1ccc(OC)c(OC)c1 [Methyleugenol] (20 µM)
3. CC(=O)OC(C)C[N+](C)(C)C (configuration not stated) [Methacholine chloride] (20 µM)
4. O=C(NC1CCN(CCCCC2(C(=O)NCC(F)(F)F)c3ccccc3-c3ccccc32)CC1)c1ccccc1-c1ccc(C(F)(F)F)cc1 [Lomitapide] (20 µM)
5. CCCOc1ccccc1-c1nc2[nH]nnc2c(=O)[nH]1 [Zaprinast] (20 µM)
6. CCN(CC)C(=O)c1cccnc1 [Nikethamide] (20 µM)

Result:
0.986 (inactive)
0.921 (inactive)
1 (inactive)
1.01 (inactive)
1 (inactive)
1 (inactive)

* * *

system: Escherichia coli IAI1; assay: fold change of Putrescine concentration vs plate DMSO controls (fold change (ratio)); higher = more amine produced, active = hit call of the paper (significant change in both replicates, either direction); settings: incubation time: 27 h, anaerobic, 37 °C
Counter-ions that a name gives are not always drawn.
Experimental Readout: fold change of Putrescine concentration
Give bare numbers.

Give me fold change of Putrescine concentration for each of these compounds, listed below.
1. Oc1ncnc2[nH]ncc12 [Allopurinol] (20 µM)
2. OC[C@H]1OC(O)[C@H](O)[C@H](O)[C@@H]1O (stereo partly drawn) [D-allose] (50 µM)
3. Cn1c(=O)c2[nH]cnc2n(C)c1=O [Aminophylline] (20 µM)

Result:
1.09
1
1.17

Give me fold change of Putrescine concentration for each of these compounds, listed below.
1. COc1ccccc1N1CCN(CC(O)COc2cccc3ccccc23)CC1 (stereo not given) [Naftopidil dihydrochloride] (20 µM)
2. CCN(CC)CCNC(=O)c1cc(Br)c(N)cc1OC [Bromopride] (20 µM)

Result:
0.981
1.02

* * *

system: Ruminococcus gnavus DSM 108212; test: fold change of Tryptamine concentration vs plate DMSO controls (fold change (ratio)); higher = more amine produced, active = hit call of the paper (significant change in both replicates, either direction); conditions: incubation time: 27 h, anaerobic, 37 °C;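 for the amine columns active = adjusted P below 0.05 in both replicates with a change the same way and a mean fold change under 0.8 or over 1.25; inactive = the rest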
Structures can show the parent of a compound that is named as a salt.
Respond only with the outcome that fits, drawn from active, inactive

Task: Assay result, entry OC[C@H]1O[C@@](CO)(OC[C@@]2(OC[C@@]3(O[C@H]4O[C@H](CO)[C@@H](O)[C@H](O)[C@H]4O)O[C@H](CO)[C@@H](O)[C@@H]3O)O[C@H](CO)[C@@H](O)[C@@H]2O)[C@@H](O)[C@@H]1O [Nystose] (50 µM) — outcome?
Result: inactive

Task: Assay result, entry CC1(C)S[C@@H]2[C@H](NC(=O)[C@H](N)c3ccccc3)C(=O)N2[C@H]1C(=O)O [Ampicillin sodium salt] (20 µM) — outcome?
Result: active

Task: Assay result, entry O=C1OC(c2ccc(O)cc2)(c2ccc(O)cc2)c2ccccc21 [Phenolphthalein] (20 µM) — outcome?
Result: inactive

Task: Assay result, entry CC(C)(C)NC[C@@H](O)COc1cccc2c1CCCC2=O [(+) Levobunolol hydrochloride] (20 µM) — outcome?
Result: inactive

Task: Assay result, entry CC(C)C(=O)c1c(C(C)C)nn2ccccc12 [Ibudilast] (20 µM) — outcome?
Result: inactive

Task: Assay result, entry C[C@@H]1C[C@H]2[C@@H]3C[C@H](F)C4=CC(=O)C=C[C@]4(C)[C@@]3(Cl)[C@@H](O)C[C@]2(C)[C@H]1C(=O)COC(=O)C(C)(C)C [Clocortolone pivalate] (20 µM) — outcome?
Result: inactive

* * *

tested on: Ruminococcus gnavus DSM 108212; assay: fold change of Tryptamine concentration vs plate DMSO controls (fold change (ratio)); higher = more amine produced, active = hit call of the paper (significant change in both replicates, either direction); conditions: incubation time: 27 h, anaerobic, 37 °C
Counter-ions that a name gives are not always drawn.
Experimental Readout: fold change of Tryptamine concentration

• CC(C)c1nc(CN(C)C(=O)N[C@H](C(=O)N[C@@H](Cc2ccccc2)C[C@H](O)[C@H](Cc2ccccc2)NC(=O)OCc2cncs2)C(C)C)cs1 [Ritonavir] (20 µM) = 0.942 (inactive)
• Cc1c(N(C)C)c(=O)n(-c2ccccc2)n1C [Amidopyrine] (20 µM) = 1.16 (inactive)
• CCCCCN(CCCCC)C(=O)C(CCC(=O)O)NC(=O)c1ccc(Cl)c(Cl)c1 (centres undefined) [Lorglumide sodium salt] (20 µM) = 0.94 (inactive)

Alright, here's another compound for you.
Task: Form: Entry = CC(C)NC[C@@H](O)COc1cccc2ccccc12 [(R) Propranolol hydrochloride] (20 µM) | System = Ruminococcus gnavus DSM 108212 | fold change of Tryptamine concentration = ____
Result: 0.95 (inactive)

* * *

I'd appreciate it if you could supply fold change of Histamine concentration values for the items below.
test system: Klebsiella aerogenes DSM 30053; test: fold change of Histamine concentration vs plate DMSO controls (fold change (ratio)); higher = more amine produced, active = hit call of the paper (significant change in both replicates, either direction); conditions: incubation time: 27 h, anaerobic, 37 °C
Structures can show the parent of a compound that is named as a salt.
Give bare numbers.

- OC[C@@H](O)[C@@H](O[C@@H]1O[C@H](CO)[C@H](O)[C@H](O)[C@H]1O)[C@H](O)[C@@H](O)CO [Lactitol] (50 µM): 0.988
- C[C@]12CCC(=O)C=C1CC[C@@H]1[C@@H]2C(=O)C[C@@]2(C)[C@H]1CC[C@]2(O)C(=O)CO [Cortisone] (20 µM): 0.991
- C=C(CC)C(=O)c1ccc(OCC(=O)O)c(Cl)c1Cl [Ethacrynic acid] (20 µM): 0.964
- CC(=O)Nc1ccc(CC(=O)O)cc1 [Actarit] (20 µM): 1.02
- CCOC(=O)C1=C(COCCN)NC(C)=C(C(=O)OC)C1c1ccccc1Cl (configuration not stated) [Amlodipine] (20 µM): 1.08
- CC(=O)CCCCn1c(=O)c2c(ncn2C)n(C)c1=O [Pentoxifylline] (20 µM): 1
- CCCCc1oc2ccc(NS(C)(=O)=O)cc2c1C(=O)c1ccc(OCCCN(CCCC)CCCC)cc1 [Dronedarone hydrochloride] (20 µM): 0.99
- O=S(=O)(O)NC1CCCCC1 [Cyclamic acid] (50 µM): 1.01
- Cc1ccccc1OCC(O)CO (configuration not stated) [Mephenesin] (20 µM): 1.01
- CCC1(c2ccccc2)NC(=O)N(C)C1=O (configuration not stated) [Mephenytoin] (20 µM): 0.905

Give me fold change of Histamine concentration for each of these compounds, listed below.
1. Cn1c(NCCN(CCO)CCCc2ccc([N+](=O)[O-])cc2)cc(=O)n(C)c1=O [Nifekalant] (20 µM)
2. CC(=O)N[C@H]1[C@H]([C@H](O)[C@H](O)CO)OC(C(=O)O)=C[C@@H]1NC(=N)N [Zanamivir] (20 µM)

Result:
0.994
1.01

Values from the supplement of paper PMC12494721
